Hello, the source for this data is patent US20250388584A1, in case you need it.

target: TPK enzyme (Homo sapiens (Human), UniProt Q9H3S4); experiment: TPK enzyme activity test; conditions: promoting effect on TPK enzyme activity
Sequence (Q9H3S4 whole entry): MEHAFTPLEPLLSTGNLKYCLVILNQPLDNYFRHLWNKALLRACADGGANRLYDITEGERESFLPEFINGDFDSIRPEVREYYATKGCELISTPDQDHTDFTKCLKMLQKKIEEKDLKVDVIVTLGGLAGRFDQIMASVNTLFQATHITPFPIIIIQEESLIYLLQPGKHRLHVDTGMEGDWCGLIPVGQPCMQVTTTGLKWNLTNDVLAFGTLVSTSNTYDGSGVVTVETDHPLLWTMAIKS
Counter-ions that a name gives are not always drawn.
Recorded pEC50 for the following compounds
Please express pEC50 as -log10 of the molar concentration.

Examples from the recorded data:
{"COMPOUND": "Cc1ccc2[nH]c3c(=O)n(CCCCN4CCN(c5cccc(C(F)(F)F)c5)CC4)cnc3c2c1 [Formate salt of 48]", "ENDPOINT NAME": "pEC50", "RECORDED NUMBER": 5.97}
{"COMPOUND": "Cc1ccc2[nH]c3c(=O)n(CCC(=O)N4CCN(c5ccc(C(F)(F)F)cc5)CC4)cnc3c2c1", "ENDPOINT NAME": "pEC50", "RECORDED NUMBER": 5.94}
{"COMPOUND": "O=C1CCCCN1CCCCCCN1CCSc2ccc(C(F)(F)F)cc21", "ENDPOINT NAME": "pEC50", "RECORDED NUMBER": 5.13}

// "Cc1ccc2[nH]c3c(=O)n(CCCC(=O)N4CCN(c5cccc(Cl)c5Cl)CC4)cnc3c2c1" : pEC50 value = 6.33

// "O=C(CCN1c2ccccc2Sc2ccccc21)NCCN1CCOCC1" : pEC50 value = 8.53

// "O=C1CCCCN1CCCCCCN1c2ccccc2Sc2ccc(C(F)(F)F)cc21" : pEC50 value = 5.95

// "COc1cccc(N2CCN(C(=O)Cn3cnc4c([nH]c5ccc(C)cc54)c3=O)CC2)c1" : pEC50 value = 5.91
